assay: Selectivity interaction (Kinase panel (cellular selectivity, Bright-Glo proliferation assay in BaF3 Cell line, Promega)) EUB0000678a TEK
measured_property: IC50 (µM)
Answer with a number only, understood to be in µM.

# compound CCN1CCN(c2ccc(Nc3cc(N(C)C(=O)Nc4c(Cl)c(OC)cc(OC)c4Cl)ncn3)cc2)CC1 ; its IC50 = 2.05

* * *

biological target: KCNQ1 (Homo sapiens); assay: Selectivity interaction (Panel of kinases, GPCRs, ion channels and transporters (enzymatic assay)) EUB0000266bCl KCNQ1
measured_property: XC50

# compound CCn1c(-c2nc3cc(C(=O)N4CCCC(N)C4)ccc3n2C)cc2ccccc21 (stereo unspecified) ; its XC50 = > 25.1 µM

* * *

target: Serine/threonine-protein kinase 16 (Homo sapiens); test: Selectivity interaction (Enzymatic assay) EUB0001550a STK16
measured_property: pIC50
Units for pIC50: none; it is -log10 of a concentration expressed in mol/L.

# molecule CN(C)CC#Cc1ccc2[nH]c3c(c2c1)-c1nc(N)ncc1CCC3 ; its pIC50 = 6.25

* * *

biological target: E3 ubiquitin-protein ligase TRIM33 (Homo sapiens, UniProt Q9UPN9); test: Selectivity interaction (BROMOscan) EUB0001074a TRIM33
pIC50: −log10 of the molar value.
measured_property: pIC50

# compound CCc1cc2cc(NS(=O)(=O)c3ccc(C#N)cc3)ccc2n(CC)c1=O ; its pIC50 = < 4.00

* * *

target: Activated CDC42 kinase 1 (Homo sapiens)
Sequence (Q07912 whole entry): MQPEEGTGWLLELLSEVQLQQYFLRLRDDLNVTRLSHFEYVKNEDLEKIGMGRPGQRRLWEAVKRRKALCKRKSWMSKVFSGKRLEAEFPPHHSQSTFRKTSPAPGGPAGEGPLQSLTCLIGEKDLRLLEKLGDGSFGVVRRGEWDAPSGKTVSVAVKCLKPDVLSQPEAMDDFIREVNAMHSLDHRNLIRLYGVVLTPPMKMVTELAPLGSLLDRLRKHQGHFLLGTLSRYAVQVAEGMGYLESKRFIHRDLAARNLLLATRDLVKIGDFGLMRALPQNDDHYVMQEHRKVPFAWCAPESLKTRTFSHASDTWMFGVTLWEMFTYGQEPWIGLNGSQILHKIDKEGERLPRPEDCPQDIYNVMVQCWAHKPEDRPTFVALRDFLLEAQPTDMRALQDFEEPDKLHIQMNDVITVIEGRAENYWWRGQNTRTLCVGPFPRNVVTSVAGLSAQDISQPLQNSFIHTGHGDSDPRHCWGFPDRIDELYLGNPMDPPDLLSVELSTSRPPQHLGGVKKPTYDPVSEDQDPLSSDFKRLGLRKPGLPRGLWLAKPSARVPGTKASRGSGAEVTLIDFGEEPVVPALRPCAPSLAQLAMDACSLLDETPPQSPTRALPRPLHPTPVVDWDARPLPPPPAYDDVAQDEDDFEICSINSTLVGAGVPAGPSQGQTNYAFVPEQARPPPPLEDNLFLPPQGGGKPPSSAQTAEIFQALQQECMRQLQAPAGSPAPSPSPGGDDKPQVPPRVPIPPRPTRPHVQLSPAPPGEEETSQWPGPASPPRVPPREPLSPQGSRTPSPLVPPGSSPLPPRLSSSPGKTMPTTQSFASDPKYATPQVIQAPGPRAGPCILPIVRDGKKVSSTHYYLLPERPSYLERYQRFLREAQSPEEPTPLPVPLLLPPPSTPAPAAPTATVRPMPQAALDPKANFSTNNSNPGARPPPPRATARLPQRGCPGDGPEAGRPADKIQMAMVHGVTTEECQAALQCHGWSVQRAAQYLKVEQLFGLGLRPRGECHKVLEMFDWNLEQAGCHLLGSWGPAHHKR
pIC50: −log10 of the molar value.
measured_property: pIC50

Record CCc1cccc(CC)c1NC(=O)c1nn(C)c2c1CCc1cnc(Nc3ccc(C(=O)NC4CCN(C)CC4)cc3OC(F)(F)F)nc1-2 / Activated CDC42 kinase 1 (Homo sapiens), pIC50 recorded as < 5.00

* * *

molecular target: SWI/SNF-related matrix-associated actin-dependent regulator of chromatin subfamily A member 2 (Homo sapiens, UniProt P51531); assay: Selectivity interaction (BROMOscan) EUB0001074a SMARCA2
Sequence (P51531 whole entry): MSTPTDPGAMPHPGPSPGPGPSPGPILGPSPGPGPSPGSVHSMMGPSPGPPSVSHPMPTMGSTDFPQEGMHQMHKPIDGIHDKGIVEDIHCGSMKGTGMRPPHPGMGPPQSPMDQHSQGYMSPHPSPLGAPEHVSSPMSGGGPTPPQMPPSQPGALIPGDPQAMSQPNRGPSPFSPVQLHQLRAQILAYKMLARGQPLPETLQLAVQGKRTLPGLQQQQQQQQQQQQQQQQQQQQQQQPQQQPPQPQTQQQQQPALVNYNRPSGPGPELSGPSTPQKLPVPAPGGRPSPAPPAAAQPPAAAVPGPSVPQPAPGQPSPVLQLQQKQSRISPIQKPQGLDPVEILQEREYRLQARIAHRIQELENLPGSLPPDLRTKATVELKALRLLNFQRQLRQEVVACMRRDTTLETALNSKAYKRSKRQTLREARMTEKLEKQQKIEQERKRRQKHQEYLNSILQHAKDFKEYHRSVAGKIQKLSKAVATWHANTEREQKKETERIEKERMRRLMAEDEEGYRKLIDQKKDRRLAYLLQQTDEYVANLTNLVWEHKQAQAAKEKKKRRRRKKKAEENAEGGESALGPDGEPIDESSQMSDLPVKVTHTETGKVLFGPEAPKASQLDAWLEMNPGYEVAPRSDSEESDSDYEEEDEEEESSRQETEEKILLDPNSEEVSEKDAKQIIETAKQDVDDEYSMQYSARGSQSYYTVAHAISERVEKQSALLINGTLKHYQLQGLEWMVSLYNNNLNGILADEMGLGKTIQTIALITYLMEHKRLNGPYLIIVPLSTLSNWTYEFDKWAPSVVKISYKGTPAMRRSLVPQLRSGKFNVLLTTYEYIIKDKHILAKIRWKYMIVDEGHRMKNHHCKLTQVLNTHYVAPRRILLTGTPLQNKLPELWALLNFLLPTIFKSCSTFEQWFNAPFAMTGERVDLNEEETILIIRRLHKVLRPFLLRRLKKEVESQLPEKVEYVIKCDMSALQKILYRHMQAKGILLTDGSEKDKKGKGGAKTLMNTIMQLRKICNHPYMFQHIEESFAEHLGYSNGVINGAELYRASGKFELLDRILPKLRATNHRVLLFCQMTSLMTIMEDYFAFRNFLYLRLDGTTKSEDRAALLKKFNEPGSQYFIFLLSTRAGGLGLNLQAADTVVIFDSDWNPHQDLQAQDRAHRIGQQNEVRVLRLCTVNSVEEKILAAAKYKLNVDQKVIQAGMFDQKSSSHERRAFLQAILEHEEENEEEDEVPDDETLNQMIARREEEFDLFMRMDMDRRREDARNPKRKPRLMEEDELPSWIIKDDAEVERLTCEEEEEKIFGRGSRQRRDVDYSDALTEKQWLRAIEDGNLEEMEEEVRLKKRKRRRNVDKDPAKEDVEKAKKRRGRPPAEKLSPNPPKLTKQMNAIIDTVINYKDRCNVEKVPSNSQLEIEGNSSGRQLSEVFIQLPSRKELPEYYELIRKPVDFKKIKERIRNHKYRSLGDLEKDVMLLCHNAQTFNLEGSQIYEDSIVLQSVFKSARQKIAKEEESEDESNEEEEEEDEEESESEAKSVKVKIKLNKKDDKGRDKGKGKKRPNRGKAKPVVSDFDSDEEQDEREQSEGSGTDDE
measured_property: IC50

# compound CCc1cc2cc(NS(=O)(=O)c3ccc(C#N)cc3)ccc2n(CC)c1=O ; its IC50 = > 77 µM

* * *

molecular target: Tyrosine-protein kinase ITK/TSK (Homo sapiens, UniProt Q08881); assay: Selectivity interaction (Enyzmatic assay) EUB0000601a ITK
measured_property: IC50

# compound CCc1cc(Nc2nccc(-c3c(-c4ccc(OC)c(C(=O)Nc5c(F)cccc5F)c4)nc4ccccn34)n2)c(OC)cc1N1CCC(N2CCN(S(C)(=O)=O)CC2)CC1 ; its IC50 = > 25 µM

* * *

target: Receptor-interacting serine/threonine-protein kinase 2 (Homo sapiens, UniProt O43353); test: Selectivity interaction (Competition-binding assay (DiscoverX)) EUB0000229b RIPK2
measured_property: Kd (µM)
Answer with a number only, understood to be in µM.

# compound COc1cc(N(C)c2ccnc3ccc(C(F)(F)F)cc23)cc(OC)c1OC ; its Kd = 4.9

* * *

target: Serine/threonine-protein kinase N1 (Homo sapiens, UniProt Q16512); assay: Selectivity interaction (Kinase panel (33PanQinase(R) Activity Assay)) EUB0000877a PKN1
Sequence (Q16512 whole entry): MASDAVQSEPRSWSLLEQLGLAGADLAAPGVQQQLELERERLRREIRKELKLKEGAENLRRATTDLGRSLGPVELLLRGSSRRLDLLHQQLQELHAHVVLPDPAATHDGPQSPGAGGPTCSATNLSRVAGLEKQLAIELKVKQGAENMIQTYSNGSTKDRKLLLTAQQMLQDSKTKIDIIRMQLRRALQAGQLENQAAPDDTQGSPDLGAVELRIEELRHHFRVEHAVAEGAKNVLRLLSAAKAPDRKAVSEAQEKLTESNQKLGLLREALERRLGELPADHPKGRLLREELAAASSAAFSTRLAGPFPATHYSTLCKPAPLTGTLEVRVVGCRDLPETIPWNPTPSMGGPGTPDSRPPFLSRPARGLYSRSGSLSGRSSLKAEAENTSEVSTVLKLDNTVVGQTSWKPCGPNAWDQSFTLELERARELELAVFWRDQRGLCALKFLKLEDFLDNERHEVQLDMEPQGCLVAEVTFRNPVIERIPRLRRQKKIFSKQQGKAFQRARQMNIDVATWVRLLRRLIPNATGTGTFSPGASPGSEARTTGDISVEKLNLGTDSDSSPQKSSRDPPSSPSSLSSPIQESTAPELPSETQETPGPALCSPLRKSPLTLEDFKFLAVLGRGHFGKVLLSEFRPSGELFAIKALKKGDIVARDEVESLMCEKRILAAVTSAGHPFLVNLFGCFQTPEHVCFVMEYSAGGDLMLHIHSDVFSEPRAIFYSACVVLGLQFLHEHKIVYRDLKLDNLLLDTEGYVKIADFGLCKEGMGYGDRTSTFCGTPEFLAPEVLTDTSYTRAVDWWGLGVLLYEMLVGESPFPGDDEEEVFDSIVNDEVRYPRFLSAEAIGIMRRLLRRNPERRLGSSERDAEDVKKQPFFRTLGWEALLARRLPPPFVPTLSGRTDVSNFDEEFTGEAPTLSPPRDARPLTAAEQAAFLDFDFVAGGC
pIC50: −log10 of the molar value.
measured_property: pIC50

# molecule CCC(=O)N1CC[C@H](Nc2ncnc3c2CN(c2cnc(OC)c(C(F)(F)F)c2)CC3)C1 [LENIOLISIB] ; its pIC50 = < 5.00

* * *

target: Serine/threonine-protein kinase haspin (Homo sapiens, UniProt Q8TF76); assay: Selectivity interaction (Enzymatic assay) EUB0001550a GSG2
measured_property: IC50 (nM)
Answer with a number only, understood to be in nM.

Record CN(C)CC#Cc1ccc2[nH]c3c(c2c1)-c1nc(N)ncc1CCC3 / Serine/threonine-protein kinase haspin (Homo sapiens, UniProt Q8TF76), IC50 recorded as 1400

* * *

molecular target: UniProt:Q86YV6; test: Selectivity interaction (Enzymatic assay) EUB0001550a MYLK4
measured_property: IC50
Numeric answer plus unit only.

Record CN(C)CC#Cc1ccc2[nH]c3c(c2c1)-c1nc(N)ncc1CCC3 / UniProt:Q86YV6, IC50 recorded as 66 nM

* * *

target: MAO-B (MAOB) (Homo sapiens, UniProt P27338); assay: Selectivity interaction (Panel of kinases, GPCRs, ion channels and transporters (enzymatic assay)) EUB0000223bCl MAOB
measured_property: XC50 (µM)
Answer with a number only, understood to be in µM.

# molecule COc1cc(C(=O)N2CC[C@@H](O)[C@@H](N)C2)cc2nc(-c3cc4ccccc4n3CC3CC3)n(C)c12 ; its XC50 = 15.8

* * *

target: UniProt:O60674; experiment: Selectivity interaction (Enyzmatic assay) EUB0000601a JAK2
pIC50: −log10 of the molar value.
measured_property: pIC50

# molecule CCc1cc(Nc2nccc(-c3c(-c4ccc(OC)c(C(=O)Nc5c(F)cccc5F)c4)nc4ccccn34)n2)c(OC)cc1N1CCC(N2CCN(S(C)(=O)=O)CC2)CC1 ; its pIC50 = < 4.80

* * *

assay: Selectivity interaction (Kinase panel (cellular selectivity, Bright-Glo proliferation assay in BaF3 Cell line, Promega)) EUB0000678a LYN
measured_property: IC50

# compound CCN1CCN(c2ccc(Nc3cc(N(C)C(=O)Nc4c(Cl)c(OC)cc(OC)c4Cl)ncn3)cc2)CC1 ; its IC50 = 3.02 µM

* * *

target: Aurora kinase B (Homo sapiens, UniProt Q96GD4); assay: Selectivity interaction (Kinase panel (Invitrogen, enzymatic assay)) EUB0000162b AURKB
Sequence (Q96GD4 whole entry): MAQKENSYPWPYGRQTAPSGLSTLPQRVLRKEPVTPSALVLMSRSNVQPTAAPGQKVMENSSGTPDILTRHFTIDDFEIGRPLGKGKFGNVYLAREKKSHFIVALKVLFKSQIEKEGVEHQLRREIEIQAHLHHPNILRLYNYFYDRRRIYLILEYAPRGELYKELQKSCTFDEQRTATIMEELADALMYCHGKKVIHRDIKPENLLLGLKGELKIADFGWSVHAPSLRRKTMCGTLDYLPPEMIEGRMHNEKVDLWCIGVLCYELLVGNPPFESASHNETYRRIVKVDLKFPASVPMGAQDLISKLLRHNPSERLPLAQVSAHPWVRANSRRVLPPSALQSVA
measured_property: IC50 (nM)
Answer with a number only, understood to be in nM.

# compound CN(C)C(=O)Cn1cc(-c2ccc(-c3cncc4ccccc34)cc2)cn1 ; its IC50 = 809

* * *

target: Platelet-derived growth factor receptor alpha (Homo sapiens, UniProt P16234); test: Selectivity interaction (Kinase panel (Enzyme activity assay)) EUB0000612a PDGFRA
measured_property: IC50

Record CCc1cccc(CC)c1NC(=O)c1nn(C)c2c1CCc1cnc(Nc3ccc(C(=O)NC4CCN(C)CC4)cc3OC(F)(F)F)nc1-2 / Platelet-derived growth factor receptor alpha (Homo sapiens, UniProt P16234), IC50 recorded as > 10 µM

* * *

molecular target: MAO-A (MAOA) (Homo sapiens, UniProt P21397); test: Selectivity interaction (Safety Panel 44tm (Eurofins)) EUB0000162b MAOA; conditions: at 10 µM, read-out: % of control
measured_property: activity (%)
Answer with a number only, understood to be in %.

# compound CN(C)C(=O)Cn1cc(-c2ccc(-c3cncc4ccccc34)cc2)cn1 ; its activity = 30

* * *

target: Cyclin-dependent kinase 8 (Homo sapiens, UniProt P49336); assay: Selectivity interaction (Reporter displacement assay) EUB0001623a CDK8
measured_property: pIC50
Units for pIC50: none; it is -log10 of a concentration expressed in mol/L.

# molecule Cc1n[nH]c2ncc(C(=O)N3CCC[C@H]3c3ccc(Cl)cc3)cc12 ; its pIC50 = 8.40

* * *

molecular target: Cyclin-dependent kinase 2 (Homo sapiens); assay: Selectivity interaction (TR-FRET binding assay) EUB0000644a CDK2
pIC50: −log10 of the molar value.
measured_property: pIC50

# compound CC[C@@H]1CN(C(=O)NCC(F)(F)F)C[C@@H]1c1cnc2cnc3[nH]ccc3n12 ; its pIC50 = < 5.00

* * *

target: Serine/threonine-protein kinase pim-2 (Homo sapiens)
measured_property: IC50

# molecule CCc1cccc(CC)c1NC(=O)c1nn(C)c2c1CCc1cnc(Nc3ccc(C(=O)NC4CCN(C)CC4)cc3OC(F)(F)F)nc1-2 ; its IC50 = > 10 µM

* * *

target: Receptor-type tyrosine-protein kinase FLT3 (Homo sapiens); assay: Selectivity interaction (Kinase panel (literature)) EUB0001623a FLT3
Sequence (P36888 whole entry): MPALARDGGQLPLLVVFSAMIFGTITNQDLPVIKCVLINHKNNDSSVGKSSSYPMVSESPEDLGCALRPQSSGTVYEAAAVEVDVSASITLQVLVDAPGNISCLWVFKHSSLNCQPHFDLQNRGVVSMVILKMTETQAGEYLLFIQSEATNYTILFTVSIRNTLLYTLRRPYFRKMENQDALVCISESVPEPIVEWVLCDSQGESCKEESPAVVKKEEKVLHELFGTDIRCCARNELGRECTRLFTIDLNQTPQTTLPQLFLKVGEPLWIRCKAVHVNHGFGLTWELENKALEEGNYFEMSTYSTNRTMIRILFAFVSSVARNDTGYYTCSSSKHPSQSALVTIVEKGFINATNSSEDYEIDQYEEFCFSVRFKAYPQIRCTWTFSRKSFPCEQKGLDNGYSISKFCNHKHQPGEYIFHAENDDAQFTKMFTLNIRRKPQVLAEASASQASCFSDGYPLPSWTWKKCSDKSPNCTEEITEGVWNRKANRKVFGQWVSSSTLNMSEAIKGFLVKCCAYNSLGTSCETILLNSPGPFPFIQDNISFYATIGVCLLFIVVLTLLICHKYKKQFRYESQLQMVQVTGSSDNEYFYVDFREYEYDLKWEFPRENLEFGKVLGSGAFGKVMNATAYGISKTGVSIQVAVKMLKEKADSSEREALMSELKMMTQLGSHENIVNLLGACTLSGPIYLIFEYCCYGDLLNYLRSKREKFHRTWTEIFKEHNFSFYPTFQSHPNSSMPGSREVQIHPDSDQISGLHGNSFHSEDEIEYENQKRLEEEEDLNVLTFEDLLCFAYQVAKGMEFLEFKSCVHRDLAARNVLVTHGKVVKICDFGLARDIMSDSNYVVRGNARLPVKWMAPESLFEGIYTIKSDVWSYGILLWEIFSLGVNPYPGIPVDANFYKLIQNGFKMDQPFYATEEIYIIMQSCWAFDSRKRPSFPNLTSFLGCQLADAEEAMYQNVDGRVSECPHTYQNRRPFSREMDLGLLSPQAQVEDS
measured_property: IC50

# compound Cc1n[nH]c2ncc(C(=O)N3CCC[C@H]3c3ccc(Cl)cc3)cc12 ; its IC50 = > 30 µM

* * *

target: 5-hydroxytryptamine receptor 3A (Homo sapiens); experiment: Selectivity interaction (BET inhibitor selectivity panel (Human antagonist intracellular Ca2+ fluorescence assay)) EUB0000102c HTR3A; assay type: cell-based
pIC50: −log10 of the molar value.
measured_property: pIC50

# compound COc1cc2c(cc1-c1c(C)noc1C)ncc1[nH]c(=O)n([C@H](C)c3ccccn3)c12 ; its pIC50 = < 4.30

* * *

target: Dual specificity tyrosine-phosphorylation-regulated kinase 1B (Homo sapiens)
pIC50: −log10 of the molar value.
measured_property: pIC50

# compound CN(c1ncccc1CNc1ccnc(-c2nc3c(F)c(Cl)ccc3[nH]2)n1)S(C)(=O)=O ; its pIC50 = < 5.00

* * *

target: Non-receptor tyrosine-protein kinase TYK2 (Homo sapiens); assay: Selectivity interaction (Kinase panel (33PanQinase(R) Activity Assay)) EUB0000877a TYK2
pIC50: −log10 of the molar value.
measured_property: pIC50

Record CCC(=O)N1CC[C@H](Nc2ncnc3c2CN(c2cnc(OC)c(C(F)(F)F)c2)CC3)C1 / Non-receptor tyrosine-protein kinase TYK2 (Homo sapiens), pIC50 recorded as < 5.00
